target: EP4 (Homo sapiens, UniProt P35408); experiment: EP4 Ca2+ signal functional assay; assay type: cell-based
Sequence (P35408 whole entry): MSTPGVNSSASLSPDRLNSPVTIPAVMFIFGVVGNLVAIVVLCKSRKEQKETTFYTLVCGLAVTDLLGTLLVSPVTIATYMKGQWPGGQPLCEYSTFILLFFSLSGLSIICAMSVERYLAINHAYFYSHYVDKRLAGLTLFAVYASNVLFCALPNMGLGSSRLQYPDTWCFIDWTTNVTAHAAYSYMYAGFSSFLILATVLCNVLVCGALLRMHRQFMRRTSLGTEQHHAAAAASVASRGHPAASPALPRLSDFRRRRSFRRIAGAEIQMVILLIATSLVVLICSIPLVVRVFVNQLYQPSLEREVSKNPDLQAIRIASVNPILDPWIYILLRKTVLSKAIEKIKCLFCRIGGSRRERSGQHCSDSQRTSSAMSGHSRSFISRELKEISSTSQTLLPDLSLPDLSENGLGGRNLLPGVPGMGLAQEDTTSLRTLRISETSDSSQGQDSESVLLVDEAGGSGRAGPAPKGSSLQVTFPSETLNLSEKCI
EC50 strictly under 7 µM means rule met; at 7 µM or over means rule not met.

MOL SMILES: O=C(O)c1ccc(CCC[C@@H]2[C@@H](CCC3CCCCC3)[C@H](O)C[C@H]2Cl)s1
ASSAYED TARGET: EP4 (Homo sapiens, UniProt P35408)
CAT: rule met
--
MOL SMILES: O=C(O)c1ccc(CCC[C@@H]2[C@@H](/C=C/C3CCCC3)[C@H](O)C[C@H]2Cl)s1
ASSAYED TARGET: EP4 (Homo sapiens, UniProt P35408)
CAT: rule met
--
MOL SMILES: O=C(O)c1ccc(CCC[C@@H]2[C@@H](CCC3CCCC3)[C@H](O)C[C@H]2Cl)s1
ASSAYED TARGET: EP4 (Homo sapiens, UniProt P35408)
CAT: rule met
--
MOL SMILES: CCCCCC1(CC[C@@H]2[C@@H](CCCc3ccc(C(=O)O)s3)[C@H](Cl)C[C@H]2O)CCCCC1
ASSAYED TARGET: EP4 (Homo sapiens, UniProt P35408)
CAT: rule not met
--
MOL SMILES: O=C(O)c1ccc(CCC[C@@H]2[C@@H](/C=C/C3CCCCC3)[C@H](O)C[C@H]2Cl)s1
ASSAYED TARGET: EP4 (Homo sapiens, UniProt P35408)
CAT: rule met

FYI, the data here is from patent US8299068B2.
